Origin of values: the supplement of paper PMC10126150

Tested on: ATP;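 also: ATP exposure 15 min at 22 °C before imaging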
test_method_notes: switch fluorescence ratio, 500 uM ATP over buffer (Cy3 cluster intensity, sum of 5 cycles each) (fold (ratio)); higher = stronger signal-on switching upon ATP binding; sequences stand for … in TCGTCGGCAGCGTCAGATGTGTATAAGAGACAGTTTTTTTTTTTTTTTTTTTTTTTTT…TC
test_settings: aptamer strand: ATP DNA aptamer (quencher-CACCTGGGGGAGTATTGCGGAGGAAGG + anchor), 100 nM annealed; ATP concentration: 500 uM
measured_metric: switch fluorescence ratio

# residue_sequence, measured_target, result
records = [
    ("GTTTTTTTCG", "ATP", 0.983),
    ("TGTGGTGGCG", "ATP", 0.935),
]

Here are 2 sequences. What values of switch fluorescence ratio were reported for them?
1. TTTTTTCACT
2. CTTGGGGAAT

1. 1.17
2. 1.13

Here are 5 sequences. What values of switch fluorescence ratio were reported for them?
1. CGGTTATGGA
2. TATATTAGAG
3. ATTGACGGGT
4. ACGTAACATG
5. GGAGTGAGCG

1. 0.999
2. 1.01
3. 0.976
4. 1.24
5. 0.995

Here are 6 sequences. What values of switch fluorescence ratio were reported for them?
1. TAAGATGTTG
2. TTACTGATGG
3. TTCTATTTGA
4. ATCTAGGTAT
5. GGCTGCACGG
6. ATGTGTTACC

1.01
0.99
1.01
1
1.01
1.01

Here are 6 sequences. What values of switch fluorescence ratio were reported for them?
1. TAAGTATGTT
2. CGTTCGGCTG
3. CAGGGCGACA
4. CACTTGTTTT
5. ATGTTTTTAG
6. GAATGTGGGG

1. 1
2. 1.04
3. 0.992
4. 1.01
5. 0.991
6. 0.982

Here are 4 sequences. What values of switch fluorescence ratio were reported for them?
1. GGGAGCACTA
2. GTTCGGATGG
3. TTAGATATGG
4. CCGGTAAGTC

[1.09, 1.01, 1.02, 1.27]

Here are 5 sequences. What values of switch fluorescence ratio were reported for them?
1. TTTCACAATC
2. TATGTGCTGT
3. TGTTTTTATC
4. ACATAGGGCT
5. CGTTGCGGGA

1. 1.07
2. 0.983
3. 0.992
4. 0.987
5. 1.01

Here are 7 sequences. What values of switch fluorescence ratio were reported for them?
1. ATACTTGAAC
2. TGGGTTGATG
3. GCGAGAGTGT
4. ATTTTAGCGT
5. GGTTGGAGTG
6. ACGGGGCGTT
7. TCGGGGTCAG

[1.03, 0.959, 0.996, 0.996, 0.963, 1.01, 0.999]

Here are 6 sequences. What values of switch fluorescence ratio were reported for them?
1. GTTTTTTGAT
2. GAGGGACGGG
3. GTTGTTTTTG
4. CAATAGGCAG
5. GAAAGTAAGC
6. TGCGGATGTT

[1.01, 1.02, 1.02, 0.982, 0.993, 0.953]

###

Test system: ATP;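 also: ATP exposure 15 min at 22 °C before imaging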
test_method_notes: switch fluorescence ratio, 500 uM ATP over buffer (Cy3 cluster intensity, sum of 5 cycles each) (fold (ratio)); higher = stronger signal-on switching upon ATP binding; sequences stand for … in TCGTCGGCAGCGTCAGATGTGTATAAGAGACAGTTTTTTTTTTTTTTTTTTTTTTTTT…TC
test_settings: aptamer strand: ATP DNA aptamer (quencher-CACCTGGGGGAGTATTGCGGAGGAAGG + anchor), 100 nM annealed; ATP concentration: 500 uM
Can you tell me switch fluorescence ratio for the items I'm about to list?
Answers are plain numbers.

# residue_sequence, switch fluorescence ratio
rows = [
    ("GTGGAGGGTA", 1.01),
]

Here are 2 sequences. What values of switch fluorescence ratio were reported for them?
1. TATGGGTTGG
2. TTCAAAGTTT

1.02
0.993

Here are 4 sequences. What values of switch fluorescence ratio were reported for them?
1. CATAGTTTTT
2. CCATAGGATA
3. GGATGCTTTC
4. TGATTGGTAA

[1.02, 1.03, 1.02, 0.939]

Here are 4 sequences. What values of switch fluorescence ratio were reported for them?
1. TAATTAAATA
2. TTTGAATTTC
3. TTGAAAGGGG
4. ACATTATATG

[1.04, 0.988, 0.996, 1.01]
